All figures here come from paper PMC8528861.

- Measurement target: M. musculus LNK SH2 domain (residues 324–446), wild type (mouse, UniProt O09039 324-446)
- Sequence (O09039 324-446): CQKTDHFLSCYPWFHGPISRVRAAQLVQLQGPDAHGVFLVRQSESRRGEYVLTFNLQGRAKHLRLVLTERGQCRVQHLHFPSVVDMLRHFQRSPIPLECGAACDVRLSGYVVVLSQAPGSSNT
- Assay overview: SPR
Where no end group is shown, it is not given here. [ ]: non-standard residue; d: D form. pY = N[C@@H](Cc1ccc(OP(=O)(O)O)cc1)C(=O)O
Measured attribute: Kd (nM)
Give the quantity in nM, number only.

Requested read-out: Kd. Entry: FTPD[pY]ELLTEND (also: biotin, site not given here) [biotinylated JAK2 pY813 peptide] 27
